Biological target: human PD-L1 (soluble protein of the kinetic measurements) (human) (UniProt Q9NZQ7)
Sequence (Q9NZQ7 19-238 limits assumed): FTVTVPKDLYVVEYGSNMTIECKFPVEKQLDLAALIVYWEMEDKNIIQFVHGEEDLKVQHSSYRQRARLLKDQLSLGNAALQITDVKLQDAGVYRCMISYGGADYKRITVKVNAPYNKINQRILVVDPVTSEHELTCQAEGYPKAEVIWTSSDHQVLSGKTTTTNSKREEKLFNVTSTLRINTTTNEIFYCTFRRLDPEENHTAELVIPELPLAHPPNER
Assay: dissociation rate constant of scFv phage clone, method not named
Parameter: koff (s⁻¹)
Reply numerically in s⁻¹, unit not repeated.

Lab book: koff of 1G1.E12 scFv phage clone (scFv, V domains shown, part only, scFv linker not given) VH: QVQLVESGGGLVQPGRSLRLSCAASGFTFDDYAMHWVRQAPGKGLEWVSGISWNSGSIGYADSVKGRFTISRDNAKNSLYLQMNSLRAEDTAVYYCAKPRDISSWLGMDVWGQGTTVTVSS VL: DIQMTQSPSSVSASVGDRVTITCRASQDISSWLAWYQQKPGKAPKLLIYAASSLQSGVPSRFSGSGSGTDFTLTISSLQPEDSATYYCQQTVTFPYTFGQGTKLEIKR noted as 0.000268

Lab book: koff of 1G1.D8 scFv phage clone (scFv, part only; not given: scFv linker, part only) scFv, part: QVQLVESGGGLVQPGRSLRLSCAASGFTFDDYAMHWVRQAPGKGLEWVSGISWNSGSIGYADSVKGRFTISRDNAKNSLYLQMNSLRAEDTAVYYCAKPRDISSWLGMDVWGQGTTVTVSSDIQMTQSPSSVSASVGDRVTITCRASQDISSWLAWYQQKPGKAPKLLIYAASSLQSGVPSRFSGSGSGTDFTLTISSLQPEDSATYYCQQTTNFPYTFGQGTKLEIKR noted as 0.000242

Lab book: koff of ME4.A11 scFv phage clone (scFv, V domains shown, part only, scFv linker not given) VH: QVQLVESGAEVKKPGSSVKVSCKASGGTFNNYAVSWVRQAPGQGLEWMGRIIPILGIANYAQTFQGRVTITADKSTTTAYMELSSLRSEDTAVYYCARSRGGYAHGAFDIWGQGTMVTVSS VL: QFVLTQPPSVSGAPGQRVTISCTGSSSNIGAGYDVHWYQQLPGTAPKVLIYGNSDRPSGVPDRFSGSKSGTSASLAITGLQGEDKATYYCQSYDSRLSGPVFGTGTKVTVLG noted as 7.86e-05

Recorded values, source patent US20210054078A1.
